Here, each record is paired with measured EC50 data.
Molecular target: UniProt:Q9Y2I7
Sequence (Q9Y2I7 whole entry): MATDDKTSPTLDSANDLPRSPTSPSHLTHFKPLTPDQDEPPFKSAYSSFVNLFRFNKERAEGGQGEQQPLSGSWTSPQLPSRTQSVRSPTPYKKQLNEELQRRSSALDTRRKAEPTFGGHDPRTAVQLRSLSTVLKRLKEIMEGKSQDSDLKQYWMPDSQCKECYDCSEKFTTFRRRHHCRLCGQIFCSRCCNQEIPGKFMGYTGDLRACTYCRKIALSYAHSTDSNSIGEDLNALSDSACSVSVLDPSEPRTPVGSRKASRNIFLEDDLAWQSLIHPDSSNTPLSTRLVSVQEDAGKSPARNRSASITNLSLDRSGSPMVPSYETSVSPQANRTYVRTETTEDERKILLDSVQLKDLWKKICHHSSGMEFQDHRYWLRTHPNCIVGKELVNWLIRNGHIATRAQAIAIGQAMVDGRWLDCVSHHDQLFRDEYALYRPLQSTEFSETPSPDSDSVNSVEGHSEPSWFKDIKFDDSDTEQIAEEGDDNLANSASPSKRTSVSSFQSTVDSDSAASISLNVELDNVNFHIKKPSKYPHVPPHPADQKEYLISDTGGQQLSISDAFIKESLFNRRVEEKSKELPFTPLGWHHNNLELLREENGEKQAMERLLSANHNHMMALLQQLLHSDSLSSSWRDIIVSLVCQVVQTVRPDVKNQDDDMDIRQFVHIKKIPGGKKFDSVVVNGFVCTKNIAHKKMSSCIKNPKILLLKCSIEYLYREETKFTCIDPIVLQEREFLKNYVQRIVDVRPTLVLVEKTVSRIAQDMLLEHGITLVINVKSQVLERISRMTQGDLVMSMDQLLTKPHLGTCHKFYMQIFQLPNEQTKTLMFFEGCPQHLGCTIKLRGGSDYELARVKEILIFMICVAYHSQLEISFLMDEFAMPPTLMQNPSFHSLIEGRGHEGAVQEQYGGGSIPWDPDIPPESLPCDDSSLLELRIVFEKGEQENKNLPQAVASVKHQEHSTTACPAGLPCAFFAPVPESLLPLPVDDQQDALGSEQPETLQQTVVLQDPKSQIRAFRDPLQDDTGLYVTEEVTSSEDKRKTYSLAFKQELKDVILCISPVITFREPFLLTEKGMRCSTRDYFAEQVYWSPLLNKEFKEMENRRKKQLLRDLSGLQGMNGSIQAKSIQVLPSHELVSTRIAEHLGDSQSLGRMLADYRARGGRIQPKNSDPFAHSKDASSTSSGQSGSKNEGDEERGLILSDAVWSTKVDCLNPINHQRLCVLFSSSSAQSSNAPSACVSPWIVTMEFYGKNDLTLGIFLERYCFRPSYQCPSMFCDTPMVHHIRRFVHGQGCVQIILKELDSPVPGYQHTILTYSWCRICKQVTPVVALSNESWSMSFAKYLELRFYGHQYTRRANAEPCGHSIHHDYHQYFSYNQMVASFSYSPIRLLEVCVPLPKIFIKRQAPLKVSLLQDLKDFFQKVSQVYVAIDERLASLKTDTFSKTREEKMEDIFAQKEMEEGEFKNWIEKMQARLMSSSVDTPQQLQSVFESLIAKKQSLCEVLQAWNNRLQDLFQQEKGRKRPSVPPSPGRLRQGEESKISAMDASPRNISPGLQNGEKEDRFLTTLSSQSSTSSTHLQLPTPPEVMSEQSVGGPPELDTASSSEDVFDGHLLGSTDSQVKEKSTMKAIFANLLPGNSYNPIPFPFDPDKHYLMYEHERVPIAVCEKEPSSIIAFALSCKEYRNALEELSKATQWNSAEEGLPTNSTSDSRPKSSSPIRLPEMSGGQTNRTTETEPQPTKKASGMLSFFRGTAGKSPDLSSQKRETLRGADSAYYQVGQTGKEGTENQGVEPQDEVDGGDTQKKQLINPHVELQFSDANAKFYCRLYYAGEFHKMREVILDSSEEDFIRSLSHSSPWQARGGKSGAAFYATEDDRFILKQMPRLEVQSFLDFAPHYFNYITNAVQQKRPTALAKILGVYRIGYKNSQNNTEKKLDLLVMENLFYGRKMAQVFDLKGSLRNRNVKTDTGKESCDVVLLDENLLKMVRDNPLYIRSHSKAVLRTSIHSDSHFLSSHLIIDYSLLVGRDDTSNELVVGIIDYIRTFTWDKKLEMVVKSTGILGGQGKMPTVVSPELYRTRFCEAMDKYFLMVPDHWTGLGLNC
Assay: Cell-based Pikfyve inhibition activity assay (EEA1 staining, mean vesicle size in BJ fibroblast cells)
Settings: Table 4, 4 hours treatment, 3 μM Apilimod = 100% inhibition

A selection of reference data follows.
INSERT INTO results (molecule, measurement_name, endpoint_value) VALUES
  ('CO[C@H](CO)c1nc(N2CCOCC2)cc(-n2nc(-c3cccc(C)c3)cc2C)n1 [Compound 225]', 'EC50', '100 to 500 nM'),
  ('CO[C@@H](CO)c1nc(N2CCOCC2)cc(-n2ccc(-c3c[nH]c4ccccc34)n2)n1 (single isomer, unassigned)', 'EC50', '< 20 nM'),
  ('Cn1cc(C(O)CCc2nc(N3CCOCC3)cc(-n3ccc(-c4ccccc4)n3)n2)cn1 (stereo not drawn)', 'EC50', '100 to 500 nM'),
  ('Cc1cccc(-c2ccn(-c3cc(N4CCOCC4)nc(OCC#N)n3)n2)c1', 'EC50', '100 to 500 nM');

Query: I am curious: what EC50 value has been reported for CO[C@@H](CO)c1nc(N2CCOCC2)cc(-n2ccc(-c3cccc4ncsc34)n2)n1 ?
Reply: > 5000 nM

Query: Form field: reported EC50 of COC(C)(C)c1nc(N2CCOCC2)cc(-n2ccc(-c3cccc(C)c3)n2)n1
Reply: 100 to 500 nM

Query: For the molecule shown here, CC(=O)NCCOc1nc(N2CCOCC2)cc(-n2ccc(-c3cccc(C)c3)n2)n1 , give the reported EC50.
Reply: < 20 nM

Query: Suppose we examine the molecule Cc1cccc(-c2ccn(-c3cc(N4CCOCC4)c4[nH]c(C)cc4n3)n2)c1 ; what EC50 value has been reported?
Reply: 500 to 5000 nM

Query: Suppose we examine the molecule CO[C@H](CO)c1nc(N2CCOCC2)cc(-n2ccc(-c3csc4ccccc34)n2)n1 (single isomer, unassigned) ; what EC50 value has been reported?
Reply: 100 to 500 nM
